Reference for the values: patent US20160297892A1

# targetOrSystem: T1, EGF domain 3 and 4 of recombinant human Protein S (human, UniProt P07225 201-286, limits assumed)
# T1 construct: domain: EGF domain 3 and 4; also called hEGF3-4
# T1 sequence (looked up): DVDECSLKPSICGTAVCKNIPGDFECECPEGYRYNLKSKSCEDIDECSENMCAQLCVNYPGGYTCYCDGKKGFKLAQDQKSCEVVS
# protocolDescription: ELISA, calcium-free TBS;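 note: binding of mouse antibodies detected by ELISA with an HRP-conjugated goat anti-mouse IgG secondary and TMB substrate development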
measurementKind: binding result

binder="M-hProtS-6F206A1 monoclonal antibody (antibody, mouse IgG1, V domains shown, Purified from hybridoma supernatant; mouse IgG1, kappa) VH: QVQLQQSGAEMVRPGSSVKISCKASGYAFSSHWMNWVKQRPGQGLEWIGQIYPGDGDTNYNGKFRGKAIVTADTSSSTAYLQLSSLTSEDTAVFFCAPGYHGTSYWFAYWGQGTLVTVSA VL: DIQMSQSPSSLSASLGDTVTITCHASQNINIWLSWYQQKPGNILTLLIYKASNLYTGVPSRFSGSGSGTDFTLTISSLQPEDIATYYCQQGQSFPLTFGTGTRLELKR" valuemeasured="no binding"
binder="M-hProtS-3F38A2 monoclonal antibody (antibody, mouse IgG1, V domains shown, Purified from hybridoma supernatant; mouse IgG1, kappa) VH: EVLLQQSGPELVKPGASVKIPCKASGYTFTDYNMDWVKQSHGKSLEWIGDINPNNGDTFYNQKFKGKATLTVDKSSSTAYMELRSLTSEDTAVYYCARSEIFTTAPDYGMGYWGQGTSVTVSS VL: ENVLTQSPAIMSASPGEKVTMTCRASSSVSSSYLHWYQQRSGASPKLWIYGTSNLASGVPARFSGSGSGTSYSLTISSVEAEDAATYYCQQYSGYPRTFGGGTKLEIKR" valuemeasured="no binding"
